assay.info: NCI Yeast Anticancer Drug Screen. Data for the sgs1 mgt1 strain (AID 161);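 note: 0% = growth of cultures given vehicle only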
experimental.context: S. cerevisiae sgs1 mgt1 strain, at 5.0 µM (retest, dose inferred, filed as 0.5), stronger effect = higher value
About 79,000 compounds went through this panel and 15% of them were active in at least one assay; those are over-represented in the sample as a whole.
measurement.type: growth inhibition (%)
Give a bare numeral; the unit % is implied.

Entry `COc1ccc(CN(C)c2c(C)ccc3ccccc23)cc1` , growth inhibition reported as 2

Further cases:
Entry `CNC(=O)c1ccc(OC)cc1C1(O)c2ccccc2CCc2ccccc21` , growth inhibition reported as 36

Entry CCCCCCC(C)OC(=O)/C=C/c1ccccc1 (stereo unspecified) , growth inhibition reported as 5

Entry `O=C1Nc2ccccc2/C1=C/c1ccc(Cl)c(Cl)c1` , growth inhibition reported as -4

Entry `N#CC1=CN=C2C=CC=C3N=C(C(Cl)(Cl)Cl)N=C1N32` , growth inhibition reported as 28

Entry `O=C(/C=C/C(=O)OCCCl)OCCCl` , growth inhibition reported as 4

###

assay.info: NCI Yeast Anticancer Drug Screen. Data for the rad50 strain (AID 155);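 note: 0% = growth of vehicle-only cultures of the same strain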
experimental.context: S. cerevisiae rad50 strain growth inhibition; at 50.0 µM (retest, dose inferred, filed as 5.0); stronger effect = higher value
This is part of a sample that, as a whole, favours compounds with a hit. Of some 79,000 tested, about 15% had one in any assay.
measurement.type: growth inhibition (%)
Give a bare numeral; the unit % is implied.

Consider the worked cases shown below.
Entry CC(CO)(Nc1ccc([N+](=O)[O-])cc1[N+](=O)[O-])C(=O)O (stereo unspecified) , growth inhibition reported as 99

Entry C1=C(c2ccccc2)C(c2ccc(OCCN3CCCCC3)cc2)Oc2ccccc21 (stereo unspecified) , growth inhibition reported as 99

Entry `Nc1nc(-c2ccccc2)c(-c2ccccc2)c(-c2nc(N)nc(-c3ccccc3)c2-c2ccccc2)n1` , growth inhibition reported as -3

Entry `[Cl][Pt+2]([Cl])([Cl])[Cl].[NH-]CC1(C[NH-])CCCC1` , growth inhibition reported as 99

Entry `Cc1ccsc1/C=N/Nc1ccc2ccccc2n1` , growth inhibition reported as 72

Entry `O=C(CN(Cc1ccccc1)Cc1ccccc1)c1ccccc1` , growth inhibition reported as 31

Further cases:
Entry COc1cc(C2SC(N)=Nc3c2c(C)nn3C(=O)c2ccccc2O)cc(OC)c1OC (stereo unspecified) , growth inhibition reported as 80

Entry CC1N=C(Cc2ccccc2)SC1C (stereo unspecified) , growth inhibition reported as 81

Entry `NNC(=O)c1c(SCc2ccccc2)nc2c3ccccc3ccn12` , growth inhibition reported as 93

Entry COc1cccc(CC2N(S(=O)(=O)c3ccc(C)cc3)CCC23C(=O)Nc2ccccc23)c1OC (stereo unspecified) , growth inhibition reported as 94

Entry `CC/C(=C(\CC)c1ccc(O)c(CN(C)C)c1)c1ccc(OC)cc1` , growth inhibition reported as 87

###

Measured growth inhibition accompanies every entry in the list below.
assay.info: NCI Yeast Anticancer Drug Screen. Data for the rad50 strain (AID 155);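 note: 0% = growth of vehicle-only cultures of the same strain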
experimental.context: S. cerevisiae rad50 strain growth inhibition; at 5.0 µM (retest, dose inferred, filed as 0.5); stronger effect = higher value
This is part of a sample that, as a whole, favours compounds with a hit. Of some 79,000 tested, about 15% had one in any assay.
Give a bare numeral; the unit % is implied.

Consider the worked cases shown below.
Entry O=C1NOCC1N=Cc1cc(Cl)ccc1O (stereo not drawn) , growth inhibition reported as 9

Entry `CC(=O)NC1=C(Oc2ccccc2)C(=O)c2ccccc2C1=O` , growth inhibition reported as 94

Entry Cc1ccc(C)c(NC(=O)CCC(=O)C(C#N)c2cccc3ccccc23)c1 (stereo not drawn) , growth inhibition reported as -22

Entry `O=[N+]([O-])c1ccc2c(N=Nc3ccc4ccccc4c3O)c(O)cc(S(=O)(=O)O)c2c1` , growth inhibition reported as 32

Entry `COc1ccc2c(c1)CCC1=C2C=C[P+]1(C)C` , growth inhibition reported as -4

Entry `C/C(Cl)=N\OC(=O)Nc1ccc(C)cc1` , growth inhibition reported as 4

Entry CC1CCC(C(C)C2C(O)CC3C4CC=C5CC(O)CCC5(C)C4CCC32C)NC1 (stereo not drawn) , growth inhibition reported as -23

Entry `Oc1ccccc1/C=N/NC(=S)NC12CC3CC(CC(C3)C1)C2` , growth inhibition reported as 7

Entry `Cc1c(Cl)cccc1N=NC(=O)NNc1cccc(Cl)c1C` , growth inhibition reported as 1

Entry `COc1cc2oc(-c3ccc(O)cc3O)c(CC=C(C)C)c(=O)c2c(O)c1/C=C/C(C)C` , growth inhibition reported as 17

Moving on to another molecule below.
Entry O=C(c1ccccc1)C1OC1c1ccccc1Cl (stereo not drawn) , growth inhibition reported as 1
